System: K562
method: NCI tumour cell line growth inhibition, 48 h
Activity calls are given as the source filed them. Rule as the data show it: active = GI50 up to about 1.1 µM and inactive = higher.
Can you answer with just one of these options? active, inactive

A selection of reference data follows.
{"compound": "C=CC(c1ccccc1)[C@@]1(OC(C)=O)C(=O)C(=O)OC1C1COC(C)(C)O1 (stereo not given in full)", "target-of-assay": "K562", "classification": "inactive"}
{"compound": "COc1cc(C2CC(C)(N3CCCC3)Oc3cc4c(cc32)OCO4)cc(OC)c1OC (stereo not given)", "target-of-assay": "K562", "classification": "active"}
{"compound": "Cc1ccc(/N=N\\c2c(O)c(S(=O)(=O)O)cc3cc(S(=O)(=O)O)ccc23)c(C)c1", "target-of-assay": "K562", "classification": "inactive"}
{"compound": "Cc1ccccc1NC(=O)C(=O)c1c(O)c2ccc(O)cc2oc1=O", "target-of-assay": "K562", "classification": "inactive"}
{"compound": "Cc1c(-c2ccccc2)cc(O)c2nc3ccccc3n12", "target-of-assay": "K562", "classification": "inactive"}
{"compound": "NC1=C(N2CCOCC2)C(=O)NC2=N/C(=C\\c3ccccc3)C(=O)N21", "target-of-assay": "K562", "classification": "inactive"}

I would be grateful if you could indicate the recorded call for O=C1C=CC=CC2CC=C[C@@H](O)C12 (stereo not given in full) .
inactive

Please do the same for COc1ccc(-c2onc(-c3ccc([N+](=O)[O-])cc3)c2C2=NCCN2)cc1 as well.
inactive

Please do the same for CC(=O)OCC1OC(n2c(-c3ccc(C)cc3)cc(-c3ccco3)c(C#N)c2=S)C(OC(C)=O)C(OC(C)=O)C1OC(C)=O (stereo not given) as well.
inactive

Please do the same for Cc1cc(C)c2ccc(N3CCNCC3)nc2n1 as well.
inactive

====

System: TK-10
method: NCI tumour cell line growth inhibition, 48 h
Activity calls are given as the source filed them. Cut-off read from the data, not from the text of the source: active = GI50 up to about 1.1 µM and inactive = higher.
The reader will find reported GI50 values listed item by item below.

Guide cases for GI50, answers given:
{"compound": "CSc1ccc2c(cc1=O)C(NC(=O)c1ccc(OC(C)=O)cc1)CCc1cc(O)c(O)c(O)c1-2 (stereo unspecified)", "GI50": "91.2 µM (inactive)"}
{"compound": "O=C1NC2(CCCCC2)C2=C1CCCCC2", "GI50": "> 100 µM (inactive)"}
{"compound": "O=C(CC12C3C4C1C1C2C3C41CC(=O)NO)NO (stereo unspecified)", "GI50": "> 100 µM (inactive)"}
{"compound": "N#Cc1nc(/C=C/c2ccccc2)oc1N", "GI50": "> 100 µM (inactive)"}
{"compound": "O=C1CC(C(O)C(O)C(O)CO)CC(=O)N1 (stereo unspecified)", "GI50": "> 100 µM (inactive)"}

Turning now to a further record.
Endpoint output: GI50 of Cc1nc(-c2cc3ccccc3oc2=O)cs1 . Value?
37.4 µM (inactive)

====

The reader will find reported GI50 values listed item by item below.
Test system: COLO 205
method: NCI tumour cell line growth inhibition, 48 h
Active and inactive are the calls of the source. Cut-off read from the data, not from the text of the source: active = GI50 up to about 1.1 µM and inactive = higher.

Guide cases for GI50, answers given:
{"compound": "Cc1occc1C(=S)Nc1ccc(Cl)c(/C=N/OC(C)C)c1", "GI50": "16.9 µM (inactive)"}
{"compound": "OCC1OC(n2cnc3c2N=CNC[C@H]3O)C(Cl)C1O (stereo not given in full)", "GI50": "> 100 µM (inactive)"}
{"compound": "C[C@]12CC[C@H](O)CC1=CC[C@@H]1C2CC[C@]2(C)c3nn(-c4ccc(F)cc4)nc3CC12 (stereo not given in full)", "GI50": "46.5 µM (inactive)"}
{"compound": "Cc1ncc(C/N=C/c2ccc(Cl)cc2)c(N)n1", "GI50": "> 100 µM (inactive)"}

Turning now to a further record.
Endpoint output: GI50 of O=C(CCN(CCO)CCO)Nc1ccc2c(c1)C(=O)c1ccc(NC(=O)CCN(CCO)CCO)cc1C2=O . Value?
10.7 µM (inactive)
